Target: T1, RAPGEF6, Q8TEU7
T1 sequence (Q8TEU7 525-625, limits assumed, looked up): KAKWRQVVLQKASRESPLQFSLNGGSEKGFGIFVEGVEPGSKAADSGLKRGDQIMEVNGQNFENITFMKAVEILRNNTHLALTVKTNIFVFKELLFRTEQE
Assay: holdup assay
Set-up: key: below the threshold = too weak to quantify, mostly under pKd 3.1 to 4
Conditions: plain residues with an end cap or a label only (N-terminal biotin on a linker: ado-ado)
PARAMETER: pKd

AKPSRISTVV [IQSEC2, Q5JU85] : below the threshold
VDSTVKVWTC [TRAF7, Q6Q0C0] : 3.57
TLPRKRMSSI [GPRC6A, Q5T6X5] : below the threshold
LPHGHSTTRV [NLGN4X, Q8N0W4] : below the threshold
